Please respond with reported GFP response vs DMSO for every item in the list.
assay: TOR pathway LAP4-GFP level changes – S. cerevisiae, multiplex flow cytometry, primary screen (AID 1873); settings: S. cerevisiae LAP4-GFP expression, 3 h, at 10 µM, stronger effect = higher value
Inconclusive results are not listed.
Express the result in % but write the number alone.

COc1cc(C2Nc3ccccc3C(=O)N2c2ccccc2)ccc1O (stereo unspecified) yielded GFP response vs DMSO of 93.3

COc1ccc(NC(=O)N2CCCCC2c2cccnc2)cc1 (stereo unspecified) yielded GFP response vs DMSO of 109

COc1ccc(CN2CCCC(C(=O)c3ccc(Cl)cc3)C2)cc1Cn1cccn1 (stereo unspecified) yielded GFP response vs DMSO of 95.9

Cc1ccccc1N1C(N)=NC(N)=NC1(C)C yielded GFP response vs DMSO of 94.8

COc1ccc(Cc2noc(CN(C)CC3(N4CCOCC4)CCCCC3)n2)cc1OC yielded GFP response vs DMSO of 95.9

O=c1cc(-c2ccccc2)oc2cc(OCc3ccccc3)cc(O)c12 yielded GFP response vs DMSO of 84.2

COc1ccc(/C=C(/C#N)c2cccnc2)cc1OC yielded GFP response vs DMSO of 99.4

O=C(c1cccc2ccccc12)C1CCCN(C(=O)CCN2CCCO2)C1 (stereo unspecified) yielded GFP response vs DMSO of 105

C[C@@H]1C[C@H](Nc2ccccc2)c2ccccc2N1C(=O)c1cccnc1 yielded GFP response vs DMSO of 98.2

C(=C\c1ccc2ccccc2n1)/c1ccccc1 yielded GFP response vs DMSO of 97.4

COc1ccc(/C=C\c2cc(OC)c(OC)cc2CC[N+](C)(C)C)cc1OC yielded GFP response vs DMSO of 122

---

assay: rapamycin-like changes in RPL19A-GFP expression – cell-based, S. cerevisiae, multiplex flow cytometry, primary screen (AID 1862);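 also: lower values mimic rapamycin by blocking the RPL19A rise seen in DMSO cells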; conditions: S. cerevisiae RPL19A-GFP strain, flow cytometry fluorescence, 3 h; at 10 µM; stronger effect = lower value
Inconclusive results are not listed.
Please respond with reported percent of DMSO control GFP for every item in the list.
Express the result in % but write the number alone.

CCOc1ccc(C(=O)NCC2(c3ccccc3)CCOCC2)cc1 yielded percent of DMSO control GFP of 99.8

COCC1CCCN(Cc2cn[nH]c2-c2cc3ccccc3o2)C1 (stereo not given) yielded percent of DMSO control GFP of 95.9

CC1=NN(C(=O)c2ccc(Br)cc2)C(O)(c2ccccc2)C1 (stereo not given) yielded percent of DMSO control GFP of 100

COc1ccc(C(=O)Oc2ccc3c(C)cc(=O)oc3c2C(C)=O)cc1 yielded percent of DMSO control GFP of 104

CCc1cc(=O)oc2cc3occ(-c4ccc(OC)c(F)c4)c3cc12 yielded percent of DMSO control GFP of 96.8

CC1(C)O[C@@H]2C[C@H]3[C@@H]4C[C@H](F)C5=CC(=O)C=C[C@]5(C)[C@@]4(F)[C@@H](O)C[C@]3(C)[C@]2(C(=O)CO)O1 yielded percent of DMSO control GFP of 102

CCOC(=O)N1CCc2[nH]c3ccc(C)cc3c2C1 yielded percent of DMSO control GFP of 95.5

COc1ccc(CCN(C)CCCC(C#N)(c2cc(OC)c(OC)c(OC)c2)C(C)C)cc1OC (stereo not given) yielded percent of DMSO control GFP of 100

COc1cc2c(cc1OC)C1(CCCC1)CNC2c1cccc([N+](=O)[O-])c1 (stereo not given) yielded percent of DMSO control GFP of 99.3

Cc1cc(=O)oc2c(CN(C)Cc3ccccc3)c(O)ccc12 yielded percent of DMSO control GFP of 100

---

assay: rapamycin-like changes in RPL19A-GFP expression – cell-based, S. cerevisiae, multiplex flow cytometry, primary screen (AID 1862);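 also: lower values mimic rapamycin by blocking the RPL19A rise seen in DMSO cells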; conditions: S. cerevisiae RPL19A-GFP strain, flow cytometry fluorescence, 3 h; at 10 µM; stronger effect = lower value
Results filed as inconclusive are left out.
Please respond with reported percent of DMSO control GFP for every item in the list.
Express the result in % but write the number alone.

CC(=O)[C@@]1(O)CC[C@H]2[C@@H]3C[C@H](C)C4=CC(=O)CC[C@]4(C)[C@H]3CC[C@@]21C yielded percent of DMSO control GFP of 90.2

NS(=O)(=O)c1cc2c(cc1C(F)(F)F)NC(Cc1ccccc1)NS2(=O)=O (stereo not given) yielded percent of DMSO control GFP of 89.8

Fc1ccc(-c2cc(-c3ccccc3)nc(-n3cccn3)n2)cc1 yielded percent of DMSO control GFP of 96.5

COc1ccc(CCn2c(C)nc3c(c(=O)c4ccccc4n3C)c2=O)cc1 yielded percent of DMSO control GFP of 98.6

O=C(N/N=C\c1cc([N+](=O)[O-])ccc1N1CCOCC1)c1ccccn1 yielded percent of DMSO control GFP of 107

Cc1nc2ccccc2n1CC(O)Cn1c2ccccc2c2ccccc21 (stereo not given) yielded percent of DMSO control GFP of 90.9

CCCCOc1ccc(C(=O)CCN2CCCCC2)cc1 yielded percent of DMSO control GFP of 109

CN1C(C(=O)Nc2ccccn2)=C(O)c2sccc2S1(=O)=O yielded percent of DMSO control GFP of 102

Cc1c(NC(=O)c2cccs2)cccc1[N+](=O)[O-] yielded percent of DMSO control GFP of 102

O=C(NCCc1ccccc1)C1CCN(C2CCN(Cc3ccco3)CC2)CC1 yielded percent of DMSO control GFP of 98.6

---

biological target: Beta-adrenergic receptor kinase 1 (Homo sapiens); assay: GRK2 binders displacing RNA aptamer, biochemical, validation, human GRK2, bead flow cytometry (AID 488806); settings: bead-bound GRK2, FAM-aptamer displacement, at 10 µM
Calls of active or inactive are those of the source.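 Rule for the calls: active = aptamer binding inhibition above 30%, about 3 SD of noise from non-fluorescent compounds; inactive = inhibition at or below 30%.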
Form entry, call: pick from 1.0 = active, 0.0 = inactive

Q: Record request — test call for COC(=O)c1ccccc1NC(=O)NCc1ccccc1
A: 0.0

Q: Record request — test call for CC12CCC(C(=O)N3CCc4ccccc43)(CC1=O)C2(C)C (centres undefined)
A: 0.0

Q: Record request — test call for Cc1coc2cc3oc(=O)c(CCC(=O)O)c(C)c3cc12
A: 0.0

Q: Record request — test call for CC1(C)CC(O)(CNCc2ccc3c(c2)OCO3)CCO1 (centres undefined)
A: 0.0

Q: Record request — test call for O=C(Nc1ccc(C(=O)NC2CCCCC2)cc1)c1cccnc1
A: 0.0

Q: Record request — test call for COC(=O)c1[nH]c(=O)c2ccccc2c1O
A: 0.0

Q: Record request — test call for CC1(C)CC(C(CC(=O)O)c2ccccc2)CCO1 (centres undefined)
A: 0.0

Q: Record request — test call for CCN(CCCc1ccccc1)CCCc1ccccc1
A: 0.0

Q: Record request — test call for CCOc1ccc2nc(S(N)(=O)=O)sc2c1
A: 0.0

Q: Record request — test call for CCC(C(=O)OCCN(CC)CC)c1ccccc1 (centres undefined)
A: 0.0

Q: Record request — test call for Cc1cc(C)c(NC(=O)NC(=O)C(Cl)(Cl)Cl)c(C)c1
A: 0.0

Q: Record request — test call for CCOc1ccc(C(=O)N2CCCC2C(=O)O)cc1 (centres undefined)
A: 0.0

Q: Record request — test call for CCOC(=O)N1CCc2[nH]c3ccc(C)cc3c2C1
A: 0.0

Q: Record request — test call for NC(=O)c1ncn([C@@H]2O[C@H](CO)[C@@H](O)[C@H]2O)c1O
A: 0.0

Q: Record request — test call for COC(=O)c1cc(Br)c(=O)n(CCc2ccc(O)cc2)c1
A: 0.0

Q: Record request — test call for COc1cc(OC)cc(C(C)=O)c1
A: 0.0

Q: Record request — test call for Cc1cn([C@H]2C[C@H](N=[N+]=[N-])[C@@H](CO)O2)c(=O)[nH]c1=O
A: 0.0

Q: Record request — test call for COc1ccc(CN2CCC(=O)NC2=O)cc1
A: 0.0

Q: Record request — test call for C=CC1=C(C(=O)O)N2C(=O)C(NC(=O)Cc3ccccc3)C2SC1 (centres undefined)
A: 1.0

Q: Record request — test call for COc1ccc2nc(C)cc(Nc3ccccc3O)c2c1
A: 0.0

Q: Record request — test call for COc1cc2c(cc1OC)CN(C(=O)c1ccc(S(=O)(=O)N(C)c3ccccc3)cc1)CC2
A: 0.0

Q: Record request — test call for CCN(CC)c1ccc([C@H]2[C@@H]3CCCC[C@]3(O)CCN2CC(=O)NCc2ccco2)cc1
A: 0.0

Q: Record request — test call for CC(C)C(=O)Nc1ccc2c3c(cccc13)CC2
A: 0.0

Q: Record request — test call for O=C(NCCc1c[nH]c2ccccc12)c1cccnc1
A: 0.0

Q: Record request — test call for Cc1nc(NCc2ccco2)c(C#N)c2c1COC(C)(C)C2
A: 0.0

Q: Record request — test call for Cn1cc(/C=C/C(=O)c2ccccc2)c2ccccc21
A: 0.0

Q: Record request — test call for CC(=O)CSc1ncnc2c1cnn2-c1ccccc1
A: 0.0

Q: Record request — test call for CC(=O)CCc1c(C)c2cccc(C)c2[nH]c1=O
A: 0.0

Q: Record request — test call for Clc1ccc2c(c1)[C@H]1OCC[C@H]1[C@@H](c1ccco1)N2
A: 0.0

Q: Record request — test call for CC(C)c1cc(=O)oc2c3c4c(cc12)CCCN4CCC3
A: 0.0

Q: Record request — test call for CCc1nc2ccccc2c(NC(=O)CN2CC(C)CC(C)C2)c1C (centres undefined)
A: 0.0

Q: Record request — test call for COC1CCN(C(=O)c2ccc(OC3CCN(Cc4ccccn4)CC3)cc2)CC1
A: 0.0

Q: Record request — test call for COC(=O)C1=C(C)N(Cc2ccco2)C(=O)/C1=C\c1ccc([N+](=O)[O-])cc1
A: 0.0

Q: Record request — test call for c1ccc2[nH]c(-c3cscn3)nc2c1
A: 0.0

Q: Record request — test call for NS(=O)(=O)c1ccc(CNC(=O)c2cc(-c3ccccc3)nc3ccccc23)cc1
A: 0.0

Q: Record request — test call for CC1(CC(=O)Nc2ccccc2)NC(=S)N(c2ccccc2)N1 (centres undefined)
A: 0.0

Q: Record request — test call for CC(C)CC(=O)Nc1ccc2oc(-c3ccncc3)nc2c1
A: 0.0

Q: Record request — test call for COc1ccc(NS(=O)(=O)c2ccc(N)cc2)nn1
A: 0.0

Q: Record request — test call for COc1ccc(O)c(C(=O)/C=C/c2cc3ccccc3o2)c1
A: 0.0

Q: Record request — test call for COC(=O)[C@@H](N)CS
A: 0.0

Q: Record request — test call for Nc1nnc(CSCc2ccc(Cl)cc2Cl)s1
A: 0.0

Q: Record request — test call for O=C(Nc1ccccc1C(=O)N1CCCCCC1)c1ccccc1Cl
A: 0.0

Q: Record request — test call for CN(C)CCN(Cc1ccc(Cl)cc1)c1ccccn1
A: 0.0

Q: Record request — test call for Cc1cccc2c(C(=O)O)cc(-c3cccnc3)nc12
A: 0.0

Q: Record request — test call for O=C1CN(O)C=C2N=c3ccccc3=C2N1c1ccc([N+](=O)[O-])cc1
A: 0.0

Q: Record request — test call for CN1CCN2c3ccccc3Cc3ccccc3C2C1 (centres undefined)
A: 0.0

Q: Record request — test call for COC(=O)C1=C(C)NC(C)=C([N+](=O)[O-])C1c1ccccc1C(F)(F)F (centres undefined)
A: 0.0

Q: Record request — test call for Cc1ccccc1C(=O)NNc1ncnc2c1cnn2C
A: 0.0

Q: Record request — test call for COc1ccccc1C(=O)Oc1ccc2c(c1)O/C(=C\c1ccncc1)C2=O
A: 0.0
